Entries annotated with measured growth at 10 µM
System: HCT-15
Test: Growth inhibition of human HCT15 cells assessed as cell growth at 10^-5 M incubated for 48 hrs by sulforhodamine B assay relative to control
Format: functional
Settings: HCT-15, 48 h, read-out: Activity
Kindly provide the numeric value in % only, without the unit symbol.

Consider the following illustrative entries.
molecule	unit.spec	numeric.value
Cc1ccc(S(=O)(=O)N2CCc3c([nH]c4ccccc34)C2c2ccc(C=O)cc2)cc1 (stereo unspecified)	%	94.3
O=Cc1ccc(C2NCCc3c2[nH]c2ccccc32)cc1 (stereo unspecified)	%	101
Cc1ccc(S(=O)(=O)N2CCc3c([nH]c4ccccc34)C2c2ccc(-c3nc4ccccc4[nH]3)cc2)cc1 (stereo unspecified)	%	94.3

Exercise: Tell me the measured growth at 10 µM of c1ccc2c(c1)[nH]c1c(-c3ccc(-c4nccc5c4[nH]c4ccccc45)cc3)nccc12 , please.
Key: 99.7

Exercise: Queued: Cc1n[nH]c2c1C(c1ccc(C3NCCc4c3[nH]c3ccccc43)cc1)C(C#N)=C(N)O2 (stereo unspecified)
Key: 87.7

Exercise: Queued: c1ccc2[nH]c(-c3ccc(C4NCCc5c4[nH]c4ccccc54)cc3)nc2c1 (stereo unspecified)
Key: 107
